- System: M. avium-GFP (strain MAC104)
- run description: Toxicity assay with GFP-expressing M. avium
- assay setup: 20 μg/ml, 18 h incubation, relative to untreated bacteria
// NB: equality with 90% counts as Condition not met; only Percent-GFP-fluorescence after incubation with test compounds, M. avium-GFP (20 μg/ml) strictly below is Condition met

**Query** Record CC(C)=CCC1=C(O)C(=O)c2ccccc2C1=O [Compound Q4, lapachol, reference compound] : is its Percent-GFP-fluorescence after incubation with test compounds, M. avium-GFP (20 μg/ml) strictly below 90%?
**Result** Condition met

**Query** Determine whether this compound shows Percent-GFP-fluorescence after incubation with test compounds, M. avium-GFP (20 μg/ml) lower than 90% (ties excluded): CCCC12OC1(CCC)C(=O)c1ccccc1C2=O (stereo not shown) [Compound Q26]
**Result** Condition not met

**Query** Bench note: check whether O=C1C=CC(=O)c2c(O)cccc21 [Compound Q2] shows Percent-GFP-fluorescence after incubation with test compounds, M. avium-GFP (20 μg/ml) below 90%
**Result** Condition met

**Query** Lab note: Percent-GFP-fluorescence after incubation with test compounds, M. avium-GFP (20 μg/ml) threshold 90%. Does this compound come in strictly under it? O=C1C(c2ccccc2)=C(c2ccccc2)C(=O)c2ccccc21 [Compound Q6]
**Result** Condition met

**Query** In plain terms, does CCOC(=O)c1cccc(C2=C(CNC(=O)OC(C)(C)C)C(=O)c3ccccc3C2=O)c1 [Compound Q36] come in under 90% for Percent-GFP-fluorescence after incubation with test compounds, M. avium-GFP (20 μg/ml)?
**Result** Condition not met

**Query** I'd appreciate it if you could check whether CCOC(=O)c1ccccc1C1=C(CNC(=O)OC(C)(C)C)C(=O)c2ccccc2C1=O [Compound Q34] has Percent-GFP-fluorescence after incubation with test compounds, M. avium-GFP (20 μg/ml) smaller than 90%.
**Result** Condition met

**Query** I'd appreciate it if you could check whether CCCC1=CC(=O)c2c(OC)cccc2C1=O [Compound Q16] has Percent-GFP-fluorescence after incubation with test compounds, M. avium-GFP (20 μg/ml) smaller than 90%.
**Result** Condition not met

**Query** Here's an entry: CCCCCC1=CC(=O)c2ccccc2C1=O [Compound Q10] . Is its Percent-GFP-fluorescence after incubation with test compounds, M. avium-GFP (20 μg/ml) below 90%?
**Result** Condition met

**Query** Strictly below 90% in Percent-GFP-fluorescence after incubation with test compounds, M. avium-GFP (20 μg/ml)? CCCC1=C(CC)C(=O)c2ccccc2C1=O [Compound Q13]
**Result** Condition met

**Query** Item CCCC12OC1(CC)C(=O)c1ccccc1C2=O (stereo not shown) [Compound Q27] : Percent-GFP-fluorescence after incubation with test compounds, M. avium-GFP (20 μg/ml) beneath 90%, strictly?
**Result** Condition not met

**Query** Quick check: Percent-GFP-fluorescence after incubation with test compounds, M. avium-GFP (20 μg/ml) of CCCCC12OC1C(=O)c1ccccc1C2=O (stereo not shown) [Compound Q24] under 90%?
**Result** Condition not met

**Query** Hi there! Is Percent-GFP-fluorescence after incubation with test compounds, M. avium-GFP (20 μg/ml) for CCOC(=O)C12OC1(CC)C(=O)c1ccccc1C2=O (stereo not shown) [Compound Q28] below 90%, do you know?
**Result** Condition not met

**Query** Just wondering, is Percent-GFP-fluorescence after incubation with test compounds, M. avium-GFP (20 μg/ml) of O=C1C=C(CCCO)C(=O)c2ccccc21 [Compound Q14] below 90%?
**Result** Condition met

**Query** In plain terms, does C[Si](C)(C)n1nnc(C2=C(CO)C(=O)c3ccccc3C2=O)c1CO [Compound Q31] come in under 90% for Percent-GFP-fluorescence after incubation with test compounds, M. avium-GFP (20 μg/ml)?
**Result** Condition not met

**Query** # TODO verify Percent-GFP-fluorescence after incubation with test compounds, M. avium-GFP (20 μg/ml) < 90% strictly for this compound: O=C1C=CC(=O)c2c(O)ccc(O)c21 [Compound Q3, naphthazarin, reference compound]
**Result** Condition met

**Query** I'd appreciate it if you could check whether CCOC(=O)C1=C(CC)C(=O)c2ccccc2C1=O [Compound Q15] has Percent-GFP-fluorescence after incubation with test compounds, M. avium-GFP (20 μg/ml) smaller than 90%.
**Result** Condition met

**Query** Check if Percent-GFP-fluorescence after incubation with test compounds, M. avium-GFP (20 μg/ml) falls below 90% for CCCCCCCC1=CC(=O)c2ccccc2C1=O [Compound Q12] .
**Result** Condition met

Attribution: patent US20080020421A1
